# target-of-assay: PD-1/PD-L1 (Homo sapiens)
# experiment-description: TR-FRET PD-1/PD-L1 binding inhibition at the molecular level (free proteins)
# reported-conditions: Tag1-PD-L1 and Tag2-PD-1 proteins, twelve concentrations from 200 nM, 2 hours at room temperature, read-out: FRET assay (IC50)
attribute-measured: IC50

Look at this molecule and give its reported IC50. CC(C)(N[C@H]1CCCn2nc(C(=O)Nc3cccc(-c4cccc(Nc5nc(C(F)F)nc6cc(CN7CC[C@@H](O)C7)cnc56)c4Cl)c3Cl)cc21)C(=O)O 10 to 100 nM

---

# target-of-assay: PD-1/PD-L1 (Homo sapiens, UniProt Q9NZQ7)
# Sequence (Q9NZQ7 19-238 limits assumed): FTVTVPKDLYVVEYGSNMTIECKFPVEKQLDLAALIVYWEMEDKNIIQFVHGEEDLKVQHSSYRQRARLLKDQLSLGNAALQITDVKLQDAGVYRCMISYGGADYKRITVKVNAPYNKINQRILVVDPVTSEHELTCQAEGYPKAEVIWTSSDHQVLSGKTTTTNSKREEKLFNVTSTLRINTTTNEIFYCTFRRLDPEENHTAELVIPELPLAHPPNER
# experiment-description: TR-FRET PD-1/PD-L1 binding inhibition at the molecular level (free proteins)
# reported-conditions: Tag1-PD-L1 and Tag2-PD-1 proteins, twelve concentrations from 200 nM, 2 hours at room temperature, read-out: FRET assay (IC50)
Recorded IC50 values for a group of compounds are listed next.

Would you please look over these solved cases?
Look at this compound and give its reported IC50. CC(=O)NCCNC1CCCn2nc(C(=O)Nc3cccc(-c4cccc(Nc5nc(C(F)F)nc6cc(CN7CC[C@@H](O)C7)cnc56)c4C)c3C)cc21 (some centres unmarked) 10 to 100 nM

CN(C)[C@H]1CCCn2nc(C(=O)Nc3cccc(-c4cccc(NC(=O)c5cc6n(n5)CCC[C@@H]6NCCO)c4Cl)c3Cl)cc21 ? < 10 nM

Cc1c(NC(=O)c2cc3n(n2)CCCC3NC(C)(C)C(=O)O)cccc1-c1cccc(Nc2nc(C(F)F)nc3cc(CN4CC[C@@H](O)C4)cnc23)c1C (some centres unmarked) ? < 10 nM

Cc1c(NC(=O)c2cc3n(n2)CCCC3O)cccc1-c1cccc(NC(=O)c2nc3c(n2C)CCN(CCC24CCC(C(=O)O)(CC2)C4)C3)c1C (centres unmarked) ? < 10 nM

O[C@@H]1CCN(Cc2cnc3c(Nc4cccc(-c5cccc(-c6cc7n(n6)CCCC7N6CC[C@@H](O)C6)c5Cl)c4Cl)nccc3c2)C1 (some centres unmarked) ? < 10 nM

Proceed to the following item.
Look at this compound and give its reported IC50. O=C(Nc1cccc(-c2cccc(Nc3nccc4cc(CN5CC[C@H](O)C5)cnc34)c2Cl)c1Cl)c1cc2n(n1)CCCC2N1CCC(O)CC1 (some centres unmarked) < 10 nM

---

# target-of-assay: PD-1/PD-L1 (Homo sapiens)
# experiment-description: TR-FRET PD-1/PD-L1 binding inhibition at the molecular level (free proteins)
# reported-conditions: Tag1-PD-L1 and Tag2-PD-1 proteins, twelve concentrations from 200 nM, 2 hours at room temperature, read-out: FRET assay (IC50)
# Method: In order to evaluate the inhibitory activity of the compounds synthesized according to the above Preparation Examples against PD-1/PD-L1 molecules in a free protein state,a TR-FRET (Time-Resolved Fluorescence Energy Transfer) experimetn was performed as described below. Specifically, the compounds were prepared in a 96-well plate by serial dilution starting from 200 nM with 1/2 dilutions to obtain a total of twelve concentrations, and 2 µL of each compound solution was added to a 384-well plate. […]
pIC50: −log10 of the molar value.
Recorded pIC50 values for a group of compounds are listed next.

Would you please look over these solved cases?
Look at this compound and give its reported pIC50. CC(=O)NCCN[C@@H]1CCCn2nc(C(=O)Nc3cccc(-c4cccc(NC(=O)c5ccc(CNCCO)cn5)c4Cl)c3Cl)cc21 [Compound 242] > 8.00

O=C(O)CN[C@H]1CCCn2nc(C(=O)Nc3cccc(-c4cccc(Nc5nccc6cc(CN7CC[C@@H](O)C7)cnc56)c4Cl)c3Cl)cc21 [Compound 218] ? > 8.00

Cc1c(NC(=O)c2cc3n(n2)CCCC3NCC(=O)O)cccc1-c1cccc(Nc2nc(C(F)F)nc3cc(CN4CC[C@@H](O)C4)cnc23)c1C (stereo partly drawn) [Compound 134] ? 7.00 to 8.00

CN[C@H]1CCCn2nc(C(=O)Nc3cccc(-c4cccc(NC(=O)c5ccc(CN6CC[C@@H](O)C6)cn5)c4Cl)c3Cl)cc21 [Compound 350] ? 7.00 to 8.00

More entries:
Look at this compound and give its reported pIC50. Cc1c(NC(=O)c2ccc(CN3CC[C@@H](O)C3)cn2)cccc1-c1cccc(NC(=O)c2cc3n(n2)CCC[C@H]3N2CCC[C@@H]2CO)c1C [Compound 310-1] > 8.00

CC(=O)NCCNC1CCCn2nc(C(=O)Nc3cccc(-c4cccc(Nc5nccc6cc(CN7CC[C@@H](O)C7)cnc56)c4Cl)c3Cl)cc21 (stereo partly drawn) [Compound 19] ? 7.00 to 8.00

COc1nc(-c2cccc(-c3cccc(-c4cc5n(n4)CCCC5N4CCC(O)CC4)c3C)c2C)cnc1CNC[C@@H]1CCC(=O)N1 (stereo partly drawn) [Compound 166] ? 7.00 to 8.00

Cc1c(NC(=O)c2ccc(CNCCO)cn2)cccc1-c1cccc(NC(=O)c2cc3n(n2)CCCC3NCCO)c1C (stereo not drawn) [Compound 74] ? > 8.00

O=C(Nc1cccc(-c2cccc(Nc3nccc4cc(CN5CC[C@@H](O)C5)cnc34)c2Cl)c1Cl)c1cc2n(n1)CCCC2N1CC[C@@H](C(=O)O)C1 (stereo partly drawn) [Compound 22] ? > 8.00

Cc1c(NC(=O)c2cc3n(n2)CCCC3N2CC[C@@H](O)C2)cccc1-c1cccc(Nc2nccc3cc(CN4CC[C@@H](O)C4)cnc23)c1Cl (stereo partly drawn) [Compound 38] ? 7.00 to 8.00

CC(=O)NCCNC1CCCn2nc(-c3cccc(-c4cccc(Nc5nccc6cc(CN7CC[C@@H](O)C7)cnc56)c4C)c3C)cc21 (stereo partly drawn) [Compound 175] ? > 8.00

O=C(Nc1cccc(-c2cccc(NC(=O)c3cc4n(n3)CCCC4O)c2Cl)c1Cl)c1ccc(CNCCO)cn1 (stereo not drawn) [Compound 81] ? > 8.00
